Biological target: T1, human TGF-β3 (human, UniProt P10600 301-412)
T1 sequence: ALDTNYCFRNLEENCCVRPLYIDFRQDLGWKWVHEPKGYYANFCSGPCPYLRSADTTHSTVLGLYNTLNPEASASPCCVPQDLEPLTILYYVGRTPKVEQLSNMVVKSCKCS
Test: cell-based or functional assay
Reported IC 50 (ng/ml), TMLEC PAI-1 promoter luciferase assay values are given for each entry in this list.
Field format: number, assumed ng/mL, no unit text.

Use these answered entries as a reference point.
binder	units text	data value
MTGF-β3-1719/13 (antibody, IgG2a, V domains shown, also called TGF-ß3-17) VH: QVQLQQPGAELVKPGASVKMSCKASGYIFTSYWITWVKQRPGQGLEWIGDIFPGTGSTNYNEKFKTKASLTVDTSSSTANMQLSSLTSEDSAVYSCARKLGPNYAVDYWGQGTSVTVSS VL: DVVMTQTPLSLPVSLGDQASISCRSSQSLIHSHGNTYLHWYLQKPGQSPKLLIYKLSNRFSGVPDRFSGSGSGTDFTLKISRVEAEDLGVYFCSQSTHVPFTFGSGTKLEIK	ng/mL	79
MTGF-β3-1203/11 (antibody, IgG2b, V domains shown) VH: QVQLKQSGAELVKPGASVKISCKASGYTFTDYYINWVKQRPGQGLEWIGKIGPGTGRTYYNEKFKGKATLTADKSSSTAYMQLSSLTSEDSAVYFCAIYYGWGYAMDYWGQGTSVTVSS VL: DIVMTQSPSSLSVSAGEKVTMSCKSSQSLLNSGNQKNYLAWYQQKSGQPPKLLIYGASTRESGVPDRFTGSGSGTDFTLTISSVQAEDLAVYYCQNDHGFPLTFGAGTKLELK	ng/mL	54

Looking for the measured IC 50 (ng/ml), TMLEC PAI-1 promoter luciferase assay of MTGF-β3-1679/2 (antibody, IgG2a, V domains shown) VH: QVLLQQSGPELVKPGASVKISCKASGYAFSSSWIHWVKQRPGKGLEWIGRIYPGDGDTNYTGKFKGKATLTADKSSSTAYMQLSSLTSEDSAVYFCARRMITTQAAMDYWGQGTSVTVSS VL: SFVMTQTPKFLLVSAGDRVTITCKASQSVINAVAWYQQKPGQSPKLLIYYASNRYTGVPDRFTGNGYGTDFTFTISTVQAEDLAVYFCQQDYSSPYTFGGGTKLEIK , can you help?
6

// data source = patent US20230287094A1
